- Test Protocol: passive permeability, PAMPA, ADME assay (AID 1508612)
- Experimental Parameters: pH 7.4, 30.0 min, 50.0 µM
For each of the compounds below, state its Papp.
Please state the figure in ×10⁻⁶ cm/s; there is no need to write the unit.

Ask | Indicate the recorded Papp value for this compound: COc1ccc(NC(=O)c2cccnc2)cc1S(=O)(=O)Nc1ccc(Br)cc1
Reply | 514

Ask | Indicate the recorded Papp value for this compound: c1ccc(-c2cn[nH]c2)cc1
Reply | 288

Ask | Indicate the recorded Papp value for this compound: Fc1cc(Nc2nc(-c3ccncc3)nc3ccccc23)ccc1-c1cccc(OC(F)(F)F)c1
Reply | 23.5

Ask | Indicate the recorded Papp value for this compound: Fc1cc(F)cc(Nc2nc(-c3ccncc3)nc3ccccc23)c1
Reply | 84.9

Ask | Indicate the recorded Papp value for this compound: CC(=O)c1c(C)n(-c2ccccc2)c2ccc(O)cc12
Reply | 779

Ask | Indicate the recorded Papp value for this compound: CN(C)c1cccc(-c2ncc(F)c(N3CCC(C(N)=O)CC3)n2)c1
Reply | 599

Ask | Indicate the recorded Papp value for this compound: Cc1cc(NS(=O)(=O)c2ccc(NC(=O)Cc3ccc(Cl)c(Cl)c3)cc2)no1
Reply | 30.2

Ask | Indicate the recorded Papp value for this compound: Cc1c(NC2=C(Cl)C(=O)N(c3ccccc3)C2=O)c(=O)n(-c2ccccc2)n1C
Reply | 123

Ask | Indicate the recorded Papp value for this compound: CC(C)(C)c1ccc(S(=O)(=O)N2CCC(c3ccncc3)CC2)cc1
Reply | 320

Ask | Indicate the recorded Papp value for this compound: CC(C)=CCNc1ncnc2nc[nH]c12
Reply | 54.1

Ask | Indicate the recorded Papp value for this compound: Cc1ccccc1N(C)C1CN([S+](=O)([O-])c2cccc(C(F)(F)F)c2)C1
Reply | 991

Ask | Indicate the recorded Papp value for this compound: COc1cc(C2c3c(oc4cc(C)c(C)cc4c3=O)C(=O)N2CCCN2CCOCC2)ccc1O (configuration not stated)
Reply | 118

Ask | Indicate the recorded Papp value for this compound: COc1ccc(CCNC(=O)Cn2c(=O)c3cccn3c3ccc(F)cc32)cc1OC
Reply | 442

Ask | Indicate the recorded Papp value for this compound: Cc1ccc(S(=O)(=O)Nc2cnccc2C(=O)Nc2nc(-c3ccc4c(c3)CCCC4)cs2)cc1
Reply | 45.2

Ask | Indicate the recorded Papp value for this compound: O=C1NCc2ccc(-c3cc4c(ccn4Cc4cccnc4)c(C4=CCOCC4)n3)cc21
Reply | 175

Ask | Indicate the recorded Papp value for this compound: C=CCc1cccc(CNc2ccc(S(=O)(=O)Nc3nccs3)cc2)c1O
Reply | 134

Ask | Indicate the recorded Papp value for this compound: O=C(Nc1ncnc2sc3c(c12)CCC3)c1ccco1
Reply | 369

Ask | Indicate the recorded Papp value for this compound: COc1ccc2[nH]c(=O)c(-c3noc(-c4cccs4)n3)cc2c1
Reply | 351

Ask | Indicate the recorded Papp value for this compound: Fc1cc(Nc2nc(-c3ccncc3)nc3ccccc23)ccc1-c1cc(F)c(F)c(F)c1
Reply | 21.1

Ask | Indicate the recorded Papp value for this compound: CNc1ccc(Br)cc(C(=O)/C=C/c2ccc(OC)cc2OC)c1=O
Reply | 143

Ask | Indicate the recorded Papp value for this compound: CNC(=O)Cn1cc(-c2ccc3c(c2)C(F)CC32NC(=O)N(CC(=O)N(Cc3ccc(F)cc3)[C@@H](C)C(F)(F)F)C2=O)cn1 (some centres not stated)
Reply | 115

Ask | Indicate the recorded Papp value for this compound: CC1CCN(S(=O)(=O)c2ccc3c(ccc(=O)n3CC(=O)NCc3ccc(Cl)cc3)c2)CC1
Reply | 799

Ask | Indicate the recorded Papp value for this compound: Cc1ccc(-c2nn(C(C)(C)C)c3ncnc(N)c23)cc1
Reply | 825

Ask | Indicate the recorded Papp value for this compound: CCCCN(C)C(=O)c1c(C)sc2ccn(CCC)c(=O)c12
Reply | 124

Ask | Indicate the recorded Papp value for this compound: CN(C(=O)CSc1nc2c(c(=O)[nH]1)CCCC2)c1ccccc1
Reply | 143

Ask | Indicate the recorded Papp value for this compound: Cc1cc(C)nc(NC(=S)N2CCN(c3cccc(OC(F)F)c3)CC2)c1
Reply | 852

Ask | Indicate the recorded Papp value for this compound: COc1cccc(CNc2ccc(S(=O)(=O)Nc3ncc(-c4ccccc4)s3)cc2)c1O
Reply | 36.6

Ask | Indicate the recorded Papp value for this compound: Cc1cc(NS(=O)(=O)c2ccc(NCCc3ccc(Cl)c(Cl)c3)cc2)no1
Reply | 406

Ask | Indicate the recorded Papp value for this compound: COc1cc(NC(=O)c2cc(-c3ccccc3O)no2)cc(OC)c1OC
Reply | 680

Ask | Indicate the recorded Papp value for this compound: c1ccc2c(Nc3nccs3)nc(-c3ccncc3)nc2c1
Reply | 150

Ask | Indicate the recorded Papp value for this compound: O=C1CCc2cc(S(=O)(=O)Nc3ccc(F)c(Cl)c3)ccc2N1
Reply | 460
